Data provenance is patent US6124453A.

Assay: Cytotoxic and cytostatic activity in vitro using the THP1 cell line (MTT)
Assay type: cell-based
Conditions: human, thp1 cells; after 24 h incubation, IFNγ 100 U/ml and LPS 5 μg/ml; read-out: IC50, cytotoxicity THP1 (MTT)
Result Type: CC50 at 24 h

• CCC1CC(C)C2(NC1=O)OC(CC(O)C(C)CCC=CC=C(C)C1CC=CC=CC(O)C(C)C3OC(C)(OC)CCC3C(=O)NC(C(C)C)C(=O)NC(Cc3cccc(O)c3)C(=O)N3CCCC(N3)C(=O)O1)C(C)C(O)C2C (stereo not drawn) = 1 to 5 µM
• CCC1CC(C)C2(NC1=O)OC(CC(O)C(C)CCC=CC=C(C)C1CC=CC=CC(O)C(C)C(O)C(CCC(C)=O)C(=O)NC(C(C)C)C(=O)NC(Cc3cccc(O)c3)C(=O)N3CCCC(N3)C(=O)O1)C(C)C=C2C (stereo not drawn) = 1 to 5 µM
• CC[C@H]1C[C@H](C)[C@@]2(NC1=O)O[C@@H](C[C@H](O)[C@@H](C)CC/C=C/C=C(\C)[C@@H]1C/C=C/C=C/[C@H](O)[C@H](C)[C@@H](O)[C@@H](CCC(C)=O)C(=O)N[C@@H](C(C)C)C(=O)N[C@@H](Cc3cccc(O)c3)C(=O)N3CCC[C@H](N3)C(=O)O1)[C@H](C)[C@H](O)[C@@H]2C = 1 to 5 µM
